- System: B16F0 melanoma tumour
- method-description: Biodistribution in B16 melanoma bearing mice
- Format: in vivo, C57BL/6J mice
- test-conditions: B16 melanoma bearing mice, 1 h
readout-label: uptake TUMOUR (% ID/g)
Please respond with the number in % ID/g and leave the unit unwritten.

CCN(CC)CCNC(=O)c1cccnc1F [[^18F]MEL6]: 14.6

**Q:** Reported uptake TUMOUR, compound CCCCN(C)CCCCNC(=O)c1ccc(F)nc1 [[^18F]MEL4] : ____
**A:** 4.79

**Q:** Reported uptake TUMOUR, compound CCN(CC)CCNC(=O)c1ccc(F)nc1 [[^18F]MEL2] : ____
**A:** 8.376

**Q:** Reported uptake TUMOUR, compound CCN(CC)CCNC(=O)c1ccnc(F)c1 [[^18F]MEL8] : ____
**A:** 12.22
